- PROTOCOL SUMMARY: mouse plasma pharmacokinetics after single oral administration
- Assay type: in vivo
- SETUP CONDITIONS: plasma, single PO, 100 mg/kg, read-out: plasma exposure up to 12 h after dosing
READOUT: concentration at 12 h

Quick one: concentration at 12 h of Cc1cc(NC(=O)[C@H](O)c2cc(F)cc(F)c2)ccc1-c1cnc(N)c(C(=O)NC(C)C)c1 ?
> 3200 ng/mL

###

- PROTOCOL SUMMARY: mouse plasma pharmacokinetics after single oral administration
- Format: in vivo
- SETUP CONDITIONS: plasma, PO, 30 mg/kg
READOUT: concentration at 1 h (ng/mL)
Form entry: value (ng/mL) — number only.

Reported concentration at 1 h, compound Cc1cc(NC(=O)[C@H](O)c2cc(F)cc(F)c2)ccc1-c1cnc(N)c(C(=O)NC(C)C)c1 : ____
3670
